tested target: Sodium-dependent noradrenaline transporter (Homo sapiens, UniProt P23975)
Sequence (P23975 whole entry): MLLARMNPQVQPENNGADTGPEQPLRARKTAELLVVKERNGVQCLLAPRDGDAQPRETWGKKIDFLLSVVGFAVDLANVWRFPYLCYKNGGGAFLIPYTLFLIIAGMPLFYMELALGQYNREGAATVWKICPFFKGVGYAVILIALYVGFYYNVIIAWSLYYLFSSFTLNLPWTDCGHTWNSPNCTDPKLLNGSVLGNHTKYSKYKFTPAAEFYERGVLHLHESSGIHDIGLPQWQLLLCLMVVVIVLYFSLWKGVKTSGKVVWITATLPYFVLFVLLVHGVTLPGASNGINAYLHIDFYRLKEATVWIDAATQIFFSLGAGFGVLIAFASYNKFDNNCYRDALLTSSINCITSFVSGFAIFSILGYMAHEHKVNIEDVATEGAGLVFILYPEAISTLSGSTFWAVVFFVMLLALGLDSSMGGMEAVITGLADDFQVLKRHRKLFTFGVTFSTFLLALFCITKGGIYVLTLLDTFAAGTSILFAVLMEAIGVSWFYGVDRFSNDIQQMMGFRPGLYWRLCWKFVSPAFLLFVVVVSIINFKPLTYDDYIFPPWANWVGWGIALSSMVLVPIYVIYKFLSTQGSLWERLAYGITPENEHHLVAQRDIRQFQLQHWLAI
endpoint label: IC50
Returns: string containing the numeric result and its unit.

- molecule: "COC(=O)[C@H]1[C@@H](c2ccc(F)cc2)C[C@H]2CC[C@H]1N2C"
  endpoint label: "IC50"
  result: "834 nM"

Okay, next one:
## Task Form field - read-out: IC50; system: Sodium-dependent noradrenaline transporter (Homo sapiens, UniProt P23975); submitted item: CSCCSCCC(=O)OC[C@@H]1C2CCC(C[C@@H]1c1ccc(F)cc1)N2C (some centres not stated)
## Result 16.3 nM

====

tested target: Sodium-dependent dopamine transporter (Homo sapiens)
Sequence (Q01959 whole entry): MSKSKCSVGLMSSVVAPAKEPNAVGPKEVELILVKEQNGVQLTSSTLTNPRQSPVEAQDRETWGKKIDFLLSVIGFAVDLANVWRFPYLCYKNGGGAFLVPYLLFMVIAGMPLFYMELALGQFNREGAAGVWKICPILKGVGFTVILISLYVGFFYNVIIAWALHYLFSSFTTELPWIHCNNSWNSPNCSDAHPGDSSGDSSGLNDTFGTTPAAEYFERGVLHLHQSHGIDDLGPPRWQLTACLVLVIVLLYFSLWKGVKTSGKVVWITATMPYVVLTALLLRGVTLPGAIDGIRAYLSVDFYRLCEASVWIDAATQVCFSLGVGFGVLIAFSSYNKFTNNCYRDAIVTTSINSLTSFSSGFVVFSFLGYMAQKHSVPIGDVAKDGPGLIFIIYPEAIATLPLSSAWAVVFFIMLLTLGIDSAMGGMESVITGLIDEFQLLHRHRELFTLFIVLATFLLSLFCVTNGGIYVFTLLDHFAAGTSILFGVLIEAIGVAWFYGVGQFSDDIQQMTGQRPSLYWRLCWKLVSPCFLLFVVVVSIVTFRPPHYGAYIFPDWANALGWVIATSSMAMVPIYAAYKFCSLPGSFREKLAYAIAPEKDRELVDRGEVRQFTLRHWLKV
test name: The compound was tested in vitro for high binding affinity for the Dopamine transporter (DAT) using competitive binding assay.
endpoint label: IC50 (nM)
Write down the numeric answer in nM and omit the unit.

## Task Form field - read-out: IC50; system: Sodium-dependent dopamine transporter (Homo sapiens); submitted item: CSCCSCCC(=O)OC[C@@H]1C2CCC(C[C@@H]1c1ccc(F)cc1)N2C (stereo partly specified)
## Result 0.227
